- assay_protocol: chemical genetic growth profiling, strain panel (AID 1159580);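 further: tested at 20 µM; growth read once vehicle control cultures reached saturation at 30 °C; 1 = growth at the plate median or of vehicle wells; lower values mean less growth of the strain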
- experimental_setup: S. cerevisiae deletion strains, growth OD, locus YEL037C, strain rad23, active compounds read low
The campaign covered roughly 5,500 compounds. About 2,000 (36%) were called active. About 18% were inconclusive and are not listed. The list shows a part of the results.
reported_property: normalized growth

>>> print(df.to_string())
                                   molecule  reported_property  recorded_measurement
0      CC(=O)NC1SCCC1=O (centres undefined)  normalized growth      0.975 (inactive)
1  COc1ccc(OC)c(C(O)C(C)N)c1 (centres undefined)  normalized growth      0.991 (inactive)
2                  Cc1cc(O)c(C)c(O)c1C(=O)O  normalized growth      0.976 (inactive)

Switching to the query record.
Entry CC(=O)[C@H]1CCC2C3CCC4=CC(=O)CC[C@]4(C)C3CC[C@@]21C (some centres undefined) — recorded normalized growth = 0.974 (inactive)

###

- assay_protocol: chemical genetic growth profiling, strain panel (AID 1159580)
- experimental_setup: S. cerevisiae deletion strains, growth OD, locus YJL157C, strain FAR1, active compounds read low
About 2,000 (36%) of roughly 5,500 compounds were called active. Another 18% or so got no clear call; they are omitted. The list shows a part of the results.
Give measured normalized growth for each item. Keep answers brief.
Give bare numbers.

Some compounds with recorded normalized growth:
                         structure_notation  recorded_measurement
0  Cc1nnsc1C(=O)Nc1cc(C(F)(F)F)cc(C(F)(F)F)c1                  1.01
1  COc1ccc(CN2CSC(=S)N(Cc3ccc(OC)cc3)C2)cc1                 0.954
2    Cc1ccc(Sc2c(Sc3ccc(C)cc3)c(=O)c2=O)cc1                 0.168
3                   O=C(NNc1ccccc1F)c1ccno1                 0.929
4     Cc1cc(NNC(=O)c2ccccc2Cl)nc2c1c(C)nn2C                 0.972

For each listed entry, give its normalized growth.
1. Nc1ccccc1SCc1c(Cl)cccc1Cl
2. N#CC(C#N)=C(SCc1c(Cl)cccc1Cl)SCc1c(Cl)cccc1Cl

result:
1: 0.885; 2: 0.989

###

- assay_protocol: chemical genetic growth profiling, strain panel (AID 1159580)
- experimental_setup: S. cerevisiae deletion strains, growth OD, locus YPR135W, strain CTF4
In all, about 5,500 compounds went through this assay and about 2,000 (36%) were called active. About 18% were inconclusive and are not listed. Cut-off read from the data, not from the text of the source: active = normalized growth mostly below about 0.91 (no sharp cut-off); inconclusive = no clear call, values can overlap the other calls; inactive = mostly above about 0.92. Some of the results follow.
Field 'call' accepts t = active, f = inactive

Worked examples, 10 compounds total:
>>> df
                                   compound  assigned_class
0   CC(C)(C)c1ccc(NC(=O)Cc2cc(F)cc(F)c2)cc1               f
1   COc1ccc(OC)c(S(=O)(=O)Oc2ccc(C#N)cc2)c1               f
2            COc1cc(/C=C2\NC(=O)NC2=O)ccc1O               f
3              CCOC(=O)CSC(=S)NCc1ccc(C)cc1               t
4                    CSc1nnnn1-c1c(C)cccc1C               f
5  COc1cc(C(F)(F)F)cc(C(F)(F)F)c1C(=O)Nc1cc(C(F)(F)F)cc(C(F)(F)F)c1               f
6  CCOC(=O)C1CCN(C(=S)Nc2ccccc2C(F)(F)F)CC1               f
7  CC1=C(OS(=O)(=O)c2cc(C)c(Cl)cc2Cl)C(=O)CC1               f
8  O=S(=O)(Nc1cccc2cccnc12)c1cc(Cl)c(Cl)cc1Cl               f
9                   N[C@@H](C(=O)O)c1ccccc1               f

query: Could you check what this test reported for `CCOC(=O)c1cnc2cc(C)nn2c1C` ?
result: f

query: Could you check what this test reported for `COC(=O)c1sccc1OC(=O)c1c(F)cccc1F` ?
result: f

###

- assay_protocol: chemical genetic growth profiling, strain panel (AID 1159580);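 further: tested at 20 µM; growth read once vehicle control cultures reached saturation at 30 °C; 1 = growth at the plate median or of vehicle wells; lower values mean less growth of the strain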
- experimental_setup: S. cerevisiae deletion strains, growth OD, locus YHR030C, strain SLT2, active compounds read low
In all, about 5,500 compounds went through this assay and about 2,000 (36%) were called active. Another 18% or so got no clear call; they are omitted. Some of the results follow.
reported_property: normalized growth
Numbers only.

Some compounds with recorded normalized growth:
>>> df
                                   compound  recorded_measurement
0          C[N+](C)(C)CCCCCCCCCC[N+](C)(C)C                 0.973
1  CC(=O)c1c(O)c(C)c(O)c2c1oc1c(C(C)=O)c(O)c(C)c(O)c12                 0.961
2  Cc1ccc(C)c(NC(=S)N(CCc2ccccc2)CCc2ccccn2)c1                 0.978
3  CCN(CC)CC#CCOC(=O)C(O)(c1ccccc1)C1CCCCC1 (stereo not given)                 0.985

For each listed entry, give its normalized growth.
1. O=C(CC[N+](=O)[O-])OC[C@H]1O[C@@H](O)[C@H](OC(=O)CC[N+](=O)[O-])[C@@H](OC(=O)CC[N+](=O)[O-])[C@@H]1OC(=O)CC[N+](=O)[O-]
2. Cc1c(O)c(C(=O)CC(C)C)c2oc3c(C(=O)CC(C)C)c(O)c(C)c(O)c3c2c1O
3. CN(C)c1ccc(C(=O)NN)cc1
4. CC(C)(C)CN/C(C#N)=C(/C#N)NCc1cccc(Cl)c1
5. Cc1ccc(/C=C2\CSc3ccc(F)cc3C2=O)cc1
6. CC[N+](C)(CC)CCOC(=O)C(O)(c1ccccc1)C1CCCCC1 (stereo not given)
7. Cc1cc(O)c(C)c(O)c1C(=O)O

result:
1: 1.02; 2: 1; 3: 1.08; 4: 0.977; 5: 0.706; 6: 0.989; 7: 1.04

For each listed entry, give its normalized growth.
1. Cc1cc(C(=O)Nc2ccc(Cl)cc2)nn1C(C)(C)C
2. CCS(=O)CCSP(=O)(OC)OC (stereo not given)
3. O=S(=O)(Nc1cccc2nsnc12)c1cc(Cl)sc1Cl
4. CN1CCc2cc3c(cc2[C@H]1C1OC(=O)c2c1ccc1c2OCO1)OCO3 (stereo not given in full)

result:
1. 1.08
2. 1
3. 0.871
4. 0.985

###

- assay_protocol: chemical genetic growth profiling, strain panel (AID 1159580);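 further: tested at 20 µM; growth read once vehicle control cultures reached saturation at 30 °C; 1 = growth at the plate median or of vehicle wells; lower values mean less growth of the strain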
- experimental_setup: S. cerevisiae deletion strains, growth OD, locus YER015W, strain faa2
Hit rate of the full screen: of about 5,500 compounds, about 2,000 (36%) were called active. Another 18% or so got no clear call; they are omitted. Cut-off read from the data, not from the text of the source: active = normalized growth mostly below about 0.91 (no sharp cut-off); inconclusive = no clear call, values can overlap the other calls; inactive = mostly above about 0.92. Some of the results follow.
Field 'call' accepts y for active, n for inactive

Worked examples, 6 molecules total:
molecule	assigned_class
CO[C@H]1[C@H](O)[C@H](O[C@H]2CC[C@]3(C)C4CC[C@]5(C)C(C6=CC(=O)OC6)CC[C@]5(O)C4CC[C@@H]3C2)O[C@@H](C)[C@@H]1O (some centres not stated)	n
COCCc1ccc(OCC(O)CNC(C)C)cc1 (configuration not stated)	n
COc1cc2c(cc1OC)Cc1cc(OC)c(OC)cc1Cc1cc(OC)c(OC)cc1C2	n
CC(Oc1ccccc1)C(=O)N[C@@H]1C(=O)N2[C@@H]1SC(C)(C)[C@@H]2C(=O)O (some centres not stated)	n
CC(=O)OCC(=O)[C@H]1CCC2C3CCC4=CC(=O)CC[C@]4(C)C3CC[C@@]21C (some centres not stated)	n
S=c1nc[nH]c2nc[nH]c12	n

query: Could you check what this test reported for `CN(C)CC/C=C1\c2ccccc2Sc2ccc(Cl)cc21` ?
result: y

###

- assay_protocol: chemical genetic growth profiling, strain panel (AID 1159580);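 further: tested at 20 µM; growth read once vehicle control cultures reached saturation at 30 °C; 1 = growth at the plate median or of vehicle wells; lower values mean less growth of the strain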
- experimental_setup: S. cerevisiae deletion strains, growth OD, locus YMR307W, strain GAS1, active compounds read low
In all, about 5,500 compounds went through this assay and about 2,000 (36%) were called active. About 18% were inconclusive and are not listed. The list shows a part of the results.
reported_property: normalized growth
One number for each entry.

Some molecules with recorded normalized growth:
molecule	normalized growth
COc1cc(NC(C)CCCN)c2ncccc2c1 (stereo unspecified)	0.951
CN1CCc2cc(Cl)c(O)cc2[C@@H](c2ccccc2)C1	0.993
COc1cc2c(cc1OC)C1C(=O)c3c(O)cc4c(c3OC1CO2)C=CC(C)(C)O4 (stereo unspecified)	0.949
NNC(N)=O	0.998
NC(=O)c1ccc[n+]([C@@H]2O[C@H](COP(=O)([O-])OP(=O)(O)OC[C@H]3O[C@@H](n4cnc5c(N)ncnc54)[C@H](O)[C@@H]3O)[C@@H](O)[C@H]2O)c1	0.992

Switching to the query record.
Entry COc1cc2c(cc1OC)C1C(=O)c3c(OC)cc4c(c3OC1CO2)CCC(C)(C)O4 (stereo unspecified) — recorded normalized growth = 0.99
